Biological target: HDAC2 (Homo sapiens, UniProt Q92769)
Construct: purchased Reaction Biology Corporation (assay run by the CRO)
Sequence (Q92769 whole entry): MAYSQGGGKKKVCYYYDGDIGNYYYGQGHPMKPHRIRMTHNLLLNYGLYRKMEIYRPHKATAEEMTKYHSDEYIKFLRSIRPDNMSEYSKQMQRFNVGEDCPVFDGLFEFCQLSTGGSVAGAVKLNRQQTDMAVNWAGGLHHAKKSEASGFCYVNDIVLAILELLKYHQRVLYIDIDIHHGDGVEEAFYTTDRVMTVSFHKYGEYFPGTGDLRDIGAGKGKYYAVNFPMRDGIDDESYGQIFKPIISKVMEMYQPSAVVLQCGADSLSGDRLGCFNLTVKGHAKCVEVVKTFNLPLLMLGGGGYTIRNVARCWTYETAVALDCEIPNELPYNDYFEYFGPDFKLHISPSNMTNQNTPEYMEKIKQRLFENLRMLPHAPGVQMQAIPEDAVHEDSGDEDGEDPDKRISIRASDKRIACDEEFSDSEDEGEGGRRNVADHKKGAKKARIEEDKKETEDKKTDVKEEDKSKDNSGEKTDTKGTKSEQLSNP
Assay: Initial HDAC2 IC50 estimate (BPS Biosciences HDAC fluorogenic assay kit)
Assay type: biochemical
Conditions: Supp. Table 4; rough estimates, for promising hits full measurements; read-out: HDAC2 activity (initial values for HDAC2 IC50)
Peptide text beside a SMILES is read from it.
Assay metric: IC50 (nM)
Report the figure in nM without appending any unit label.

Field: example entries. Status: answers known.
{"columns": ["Compound", "Assay metric", "Value measured"],
 "data": [
  ["N=C(N)NCCC[C@@H]1NC(=O)[C@@H](CCCNC(=N)N)NC(=O)[C@H]2CCCN2C(=O)[C@@H](CO)NC(=O)[C@H](Cc2ccc(O)cc2)NC(=O)[C@H](CCCCCS)NC(=O)[C@H](CCc2ccccc2)NC(=O)[C@@H](CCC(N)=O)NC(=O)[C@H](CC(=O)O)NC1=O [des3.3.2, SHA-Tyr-dSer-dPro-dArg-Arg-Asp-dGln-C27] (HELM PEPTIDE1{D.[dQ].[O=C([C@H](CCc1ccccc1)N[*:1])[*:2]].[O=C([C@H](CCCCCS)N[*:1])[*:2]].Y.[dS].[dP].[dR].R}$PEPTIDE1,PEPTIDE1,1:R1-9:R2$$$V2.0)", "IC50", 57],
  ["N=C(N)NCCC[C@@H]1NC(=O)[C@@H](CCCNC(=N)N)NC(=O)[C@H]2CCCN2C(=O)[C@@H](Cc2c[nH]cn2)NC(=O)[C@H](Cc2ccc(O)cc2)NC(=O)[C@H](CCCCCS)NC(=O)[C@H](CCc2ccccc2)NC(=O)[C@@H](CO)NC(=O)[C@H](CC(=O)O)NC1=O [des3.3.1, SHA-Tyr-dHis-dPro-dArg-Arg-Asp-dSer-C27] (HELM PEPTIDE1{[O=C([C@H](CCCCCS)N[*:1])[*:2]].Y.[dH].[dP].[dR].R.D.[dS].[O=C([C@H](CCc1ccccc1)N[*:1])[*:2]]}$PEPTIDE1,PEPTIDE1,1:R1-9:R2$$$V2.0)", "IC50", 25],
  ["N=C(N)NCCC[C@@H]1NC(=O)[C@@H](CCCNC(=N)N)NC(=O)[C@H]2CCCN2C(=O)[C@@H](Cc2c[nH]cn2)NC(=O)[C@H](Cc2ccc(O)cc2)NC(=O)[C@H](CCCCCS)NC(=O)[C@H](CCc2ccccc2)NC(=O)[C@@H](CCCCN)NC(=O)[C@H](CC(=O)O)NC1=O [des3.2.0, SHA-Tyr-dHis-dPro-dArg-Arg-Asp-dLys-C27] (HELM PEPTIDE1{D.[dK].[O=C([C@H](CCc1ccccc1)N[*:1])[*:2]].[O=C([C@H](CCCCCS)N[*:1])[*:2]].Y.[dH].[dP].[dR].R}$PEPTIDE1,PEPTIDE1,1:R1-9:R2$$$V2.0)", "IC50", 28]
]}

Turning to the following compound.
Challenge: Could you please provide reported IC50 for NCCCC[C@H]1NC(=O)[C@H](CCC(N)=O)NC(=O)[C@H](CCC(=O)O)NC(=O)[C@@H]2CCCN2C(=O)[C@H](CC(N)=O)NC(=O)[C@H](CCCCCS)NC(=O)CNC(=O)[C@H](Cc2c[nH]c3ccccc23)NC1=O [des1.1.1, SHA-Asn-Pro-Glu-Gln-dLys-Trp-Gly] (HELM PEPTIDE1{E.Q.[dK].W.G.[O=C([C@H](CCCCCS)N[*:1])[*:2]].N.P}$PEPTIDE1,PEPTIDE1,1:R1-8:R2$$$V2.0) ? Thanks!
Response given: 192
